# Tgt: hROMK (human Kir1.1) (Homo sapiens (Human))
# Sequence (P48048 whole entry): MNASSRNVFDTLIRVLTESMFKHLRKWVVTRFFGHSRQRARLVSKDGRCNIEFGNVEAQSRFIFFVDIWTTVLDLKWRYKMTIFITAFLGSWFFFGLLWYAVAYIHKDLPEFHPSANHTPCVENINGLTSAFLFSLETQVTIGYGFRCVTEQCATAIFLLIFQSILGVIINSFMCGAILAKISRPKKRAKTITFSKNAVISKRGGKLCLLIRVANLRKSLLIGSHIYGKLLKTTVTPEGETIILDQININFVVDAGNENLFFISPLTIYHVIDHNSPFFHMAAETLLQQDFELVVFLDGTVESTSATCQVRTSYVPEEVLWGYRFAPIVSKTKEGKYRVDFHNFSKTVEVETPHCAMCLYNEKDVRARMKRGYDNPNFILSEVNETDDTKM
# Protocol description: cell-based
# Condition parameters: CHO T-Rex hROMK stable cell line; thallium flux; 10-point concentration response curve; read-out: Human ROMK Th Flux IC50
Please use yes for IC50 under 200 nM and no for everything else, ties included.

> print(dat)
                                    compound  category
 1  Cc1c([C@@H]2CN(Cc3ccc(-n4cc(C(N)=O)cn4)nc3)CCN2)ccc2c1COC2=O        no
 2  Cc1cc(-n2cc(CN3CCN(S(C)(=O)=O)[C@H](c4ccc5c(c4C)COC5=O)C3)cn2)ncc1C#N        no
 3  Cc1cc(-c2cnc(CN3CCN[C@H](c4ccc5c(c4C)COC5=O)C3)nc2)ncc1C#N       yes
 4  COc1cc(-c2ncc(C(=O)N3CCO[C@H](c4ccc5c(c4C)COC5=O)C3)s2)ncc1C#N       yes
 5  COc1nn(-c2ncc(CN3CCN[C@H](c4ccc5c(c4C)COC5=O)C3)cn2)cc1C#N       yes
 6  Cc1c([C@@H]2CN(Cc3cnn(-c4ccn5nccc5n4)c3)CCO2)ccc2c1COC2=O        no
 7  Cc1cnccc1-n1cnc(CN2C[C@@H](c3ccc4c(c3C)COC4=O)N[C@@H](C)C2)c1        no
 8  Cc1c([C@@H]2CN(Cc3cnn(-c4cc(C5CC5)c(C#N)cn4)c3)CCO2)ccc2c1COC2=O        no
 9  Cc1cc(-c2ncc(CN3CC[C@@H](O)[C@H](c4ccc5c(c4C)COC5=O)C3)s2)ncc1C#N       yes
10  Cc1cc(-n2cc(CN3CCCC(c4ccc5c(c4C)COC5=O)C3)cn2)ncc1C#N (single isomer, unassigned)       yes
11  Cc1cn(-c2ccc(CN3CCN[C@H](c4ccc5c(c4C)COC5=O)C3)cn2)cn1       yes
12  COc1cc(-c2cc(CN3C[C@@H](c4ccc5c(c4C)COC5=O)N[C@@H](C)C3)on2)ncc1C#N       yes
13  Cc1ncn(-c2ncc(CN3C[C@@H](c4ccc5c(c4C)COC5=O)N[C@@H](C)C3)cn2)c1C       yes
14  Cc1cc(-n2ncc(CN3CCN[C@H](c4ccc5c(c4C)COC5=O)C3)n2)nc(C)c1C#N       yes
15  COc1cc(-n2cc(CN3CC[C@@H](O)[C@H](c4ccc5c(c4C)COC5=O)C3)n(C)c2=O)ncc1C#N       yes
